Examples of binders with documented AChR clusters larger or equal to 3 µm compared to agrin; antibody 1.1 µg/mL follow.
# system under test: T1, Mouse MuSK as it stands on mouse muscle (neuromuscular junctions, C2C12 myotubes) (mouse, UniProt Q61006 22-868)
# T1 sequence (looked up): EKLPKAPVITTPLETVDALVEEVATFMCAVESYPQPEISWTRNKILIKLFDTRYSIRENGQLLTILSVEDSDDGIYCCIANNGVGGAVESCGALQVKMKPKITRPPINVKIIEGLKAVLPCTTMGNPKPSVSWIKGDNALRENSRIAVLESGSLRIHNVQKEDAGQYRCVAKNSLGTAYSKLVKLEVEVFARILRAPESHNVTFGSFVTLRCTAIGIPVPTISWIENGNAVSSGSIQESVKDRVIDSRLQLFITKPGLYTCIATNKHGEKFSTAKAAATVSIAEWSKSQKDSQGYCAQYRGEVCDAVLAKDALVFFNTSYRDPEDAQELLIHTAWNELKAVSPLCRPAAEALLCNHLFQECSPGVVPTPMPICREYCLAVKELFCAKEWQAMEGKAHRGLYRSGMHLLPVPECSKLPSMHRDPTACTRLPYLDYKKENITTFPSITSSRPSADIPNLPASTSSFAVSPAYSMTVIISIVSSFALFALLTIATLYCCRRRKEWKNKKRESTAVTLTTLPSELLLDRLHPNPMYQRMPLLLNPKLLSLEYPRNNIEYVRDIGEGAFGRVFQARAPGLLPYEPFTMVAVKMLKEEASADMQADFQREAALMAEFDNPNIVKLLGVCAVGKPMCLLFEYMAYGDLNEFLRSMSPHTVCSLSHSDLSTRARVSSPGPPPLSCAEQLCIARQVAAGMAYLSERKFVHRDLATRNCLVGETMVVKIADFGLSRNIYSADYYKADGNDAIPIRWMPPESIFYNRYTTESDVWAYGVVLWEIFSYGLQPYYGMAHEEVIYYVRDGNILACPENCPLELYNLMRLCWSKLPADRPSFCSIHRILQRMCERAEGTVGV
# experiment: cell-based or functional assay

Given 4D3 (antibody, human IgG1, kappa, L234A L235A, V domains shown) VH: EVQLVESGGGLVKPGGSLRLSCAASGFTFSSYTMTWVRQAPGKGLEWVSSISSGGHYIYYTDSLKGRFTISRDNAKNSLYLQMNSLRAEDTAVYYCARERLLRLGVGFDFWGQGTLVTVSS VL: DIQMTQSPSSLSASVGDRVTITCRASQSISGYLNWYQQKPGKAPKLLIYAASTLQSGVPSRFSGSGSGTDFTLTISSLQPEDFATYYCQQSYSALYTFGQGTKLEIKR , state its recorded AChR clusters larger or equal to 3 µm compared to agrin; antibody 1.1 µg/mL.
80 % of agrin

Similarly, 3D10a (antibody, human IgG1, kappa, L234A L235A, V domains shown) VH: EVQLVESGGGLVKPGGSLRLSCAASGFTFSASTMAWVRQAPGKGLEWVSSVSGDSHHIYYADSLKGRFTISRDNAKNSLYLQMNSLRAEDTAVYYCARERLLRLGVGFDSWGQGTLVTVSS VL: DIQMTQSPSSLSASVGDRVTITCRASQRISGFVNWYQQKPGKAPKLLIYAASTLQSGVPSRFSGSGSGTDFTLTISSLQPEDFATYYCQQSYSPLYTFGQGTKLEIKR ?
79 % of agrin

Similarly, 3D9b (antibody, human IgG1, kappa, L234A L235A, V domains shown) VH: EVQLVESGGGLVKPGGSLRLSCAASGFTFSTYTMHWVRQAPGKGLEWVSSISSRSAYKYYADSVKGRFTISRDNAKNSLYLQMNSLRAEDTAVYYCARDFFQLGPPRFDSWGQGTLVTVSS VL: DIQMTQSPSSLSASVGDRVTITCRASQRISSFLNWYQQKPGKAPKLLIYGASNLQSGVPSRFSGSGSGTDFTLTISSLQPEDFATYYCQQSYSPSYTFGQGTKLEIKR ?
99 % of agrin
